All values here come from patent US20200131669A1.

ASSAY NOTES: Caco-2 membrane permeability, improved method as used in the following Examples (96-well, 20 to 24 h preincubation)
Assay type: in vitro ADME
CONDITION SET: human, Caco-2, Caco-2
Experimental: In the following Examples, membrane permeability was measured in accordance with the improved method established as described above. […] Each well was shaken at 5% CO2, 37° C., and 80 rpm, and 180 minutes after the initiation, the sample on the basal side was collected and the permeation amount was measured by LC/MS. The membrane permeability coefficient (Papp) was calculated from the permeation amount. […]
Positions of bridges follow the written chain, without caps; N, C: chain ends. Non-standard residues stand in square brackets, D forms with d. Residues, ends and D or L forms follow the SMILES beside them. ξ: configuration not given here. *: point of attachment. NMeAbu(3,3-F2-piperidino) = CN[C@@H](CCN1CCCC(F)(F)C1)C(=O)O; Glu(NHSO2Me) = CS(=O)(=O)NC(=O)CC[C@H](N)C(=O)O; NMePhe(3-Cl) = CN[C@@H](Cc1cccc(Cl)c1)C(=O)O; NMehPhe = CN[C@@H](CCc1ccccc1)C(=O)O; Ethyl(2-morpholino) = C1CN(CC*)CCO1; Gly(NCH2CH2Ph) = O=C(O)CNCCc1ccccc1; Hyp = O=C(O)[C@@H]1C[C@@H](O)CN1; NMeF = CN[C@@H](Cc1ccccc1)C(=O)O; hPhe = N[C@@H](CCc1ccccc1)C(=O)O; ξThr(3R) = C[C@@H](O)C(N)C(=O)O; Butyl(3-Me,3-OH) = CC(C)(O)CC*; NMeL = CN[C@@H](CC(C)C)C(=O)O; Propyl(2R-OH) = C[C@@H](O)C*; NMeV = CN[C@H](C(=O)O)C(C)C; NMeAbu = CC[C@H](NC)C(=O)O; NPentylGly = CCCCCNCC(=O)O; NMeA = CN[C@@H](C)C(=O)O; Piperidide = C1CCN(*)CC1; Abu = CC[C@H](N)C(=O)O; NBuGly = CCCCNCC(=O)O; ξS = NC(CO)C(=O)O; Sar = CNCC(=O)O; tBu = CC(C)(C)*
Think of 2 ×10⁻⁶ cm/s as a floor: if Papp A→B at 180 min stands on it or above, it is rule met; beneath it, rule not met.

See these solved cases before continuing.
MOLECULE	GROUP
CCCCN1CC(=O)N(C)[C@@H](Cc2ccccc2)C(=O)N(C)[C@@H](CC(C)C)C(=O)N[C@@H](C(C)C)C(=O)N(C)[C@@H](CC(C)C)C(=O)N[C@H](C(=O)N2CCCCC2)CC(=O)N(C)CC(=O)N(C)[C@@H](CC(C)C)C(=O)NC(COCCN2CCOCC2)C(=O)N(C)[C@@H](CC(C)C)C(=O)N[C@@H]([C@@H](C)O)C1=O (stereo partly drawn) [pd484] ([Sar][NMeL][ξS](Ethyl(2-morpholino))[NMeL]T[NBuGly][NMeF][NMeL]V[NMeL]D-Piperidide; lactam N-11)	rule not met
CC[C@H](C)[C@@H]1NC(=O)[C@H](CC(C)C)N(C)C(=O)[C@H](COC[C@@H](C)O)NC(=O)[C@H](Cc2ccccc2)N(C)C(=O)CN(C)C(=O)C[C@@H](C(=O)N2CCCCC2)NC(=O)[C@H](CC(C)C)N(C)C(=O)[C@H](COC(C)(C)C)NC(=O)[C@H](CC(C)C)N(C)C(=O)[C@H](Cc2ccccc2)N(C)C(=O)CN(C)C1=O [pd497] ([Sar][NMeF]S(Propyl(2R-OH))[NMeL]I[Sar][NMeF][NMeL]S(tBu)[NMeL]D-Piperidide; lactam N-11)	rule met
CCCCN1CC(=O)N(C)[C@@H](CC(C)C)C(=O)N[C@@H](CC(C)C)C(=O)N(C)[C@@H](Cc2ccccc2)C(=O)N(C)[C@@H](C(C)C)C(=O)N[C@H](C(=O)N2CCCCC2)CC(=O)N[C@H](CC(C)C)C(=O)N(C)[C@@H](Cc2cccc(Cl)c2)C(=O)N[C@@H](CCC(=O)NS(C)(=O)=O)C(=O)N(C)[C@@H](CC(C)C)C(=O)NC([C@@H](C)O)C1=O (stereo partly drawn) [pd59] ([dL][NMePhe(3-Cl)][Glu(NHSO2Me)][NMeL][ξThr(3R)][NBuGly][NMeL]L[NMeF][NMeV]D-Piperidide; lactam N-11)	rule not met
CC[C@H](C)[C@@H]1NC(=O)[C@H](CC(C)C)N(C)C(=O)[C@@H](C)NC(=O)C[C@@H](C(=O)N2CCCCC2)NC(=O)[C@H](CC)N(C)C(=O)[C@H](Cc2ccccc2)N(C)C(=O)[C@H](COC(C)(C)C)NC(=O)[C@H](CC(C)C)N(C)C(=O)[C@H](CC)N(C)C(=O)[C@H]([C@@H](C)O)NC(=O)CN(CCc2ccccc2)C1=O [pd414] ([dA][NMeL]I[Gly(NCH2CH2Ph)]T[NMeAbu][NMeL]S(tBu)[NMeF][NMeAbu]D-Piperidide; lactam N-11)	rule not met
CC(C)C[C@H]1C(=O)N(C)[C@@H](Cc2ccccc2)C(=O)N[C@H](C(=O)N2CCCCC2)CC(=O)N(C)[C@@H](C(C)C)C(=O)N[C@@H](C)C(=O)N(C)[C@@H](Cc2ccccc2)C(=O)N(C)[C@@H](CC(C)C)C(=O)N(C)CC(=O)N[C@@H]([C@@H](C)O)C(=O)N(C)[C@@H](C(C)C)C(=O)N[C@@H](CCc2ccccc2)C(=O)N1C [pd311] ([NMeV]A[NMeF][NMeL][Sar]T[NMeV][hPhe][NMeL][NMeF]D-Piperidide; lactam N-11)	rule met
CCO[C@@H]1C[C@H]2C(=O)N[C@H](C(=O)N3CCCCC3)CC(=O)N[C@@H](C(C)C)C(=O)NCC(=O)N(C)[C@@H](CC(C)C)C(=O)N(C)[C@@H](CC(C)C)C(=O)N(C)[C@@H](CC(C)C)C(=O)N(C)[C@@H](Cc3ccccc3)C(=O)N[C@@H]([C@@H](C)O)C(=O)N(C)[C@@H](Cc3ccccc3)C(=O)N(C)[C@@H](CC(C)C)C(=O)N2C1 [pd374] (VG[NMeL][NMeL][NMeL][NMeF]T[NMeF][NMeL][Hyp](Et)D-Piperidide; lactam N-11)	rule met
CCCCCN1CC(=O)N[C@@H]([C@@H](C)O)C(=O)N(C)CC(=O)N(C)[C@@H](CC(C)C)C(=O)N[C@H](C(=O)N2CCCCC2)CC(=O)N(C)[C@@H](CC)C(=O)N[C@@H](CC(C)C)C(=O)N(C)[C@@H](CC(C)C)C(=O)N(C)[C@@H](Cc2ccccc2)C(=O)N[C@@H](CC)C(=O)N(C)[C@@H](Cc2ccccc2)C1=O [pd408] ([NMeAbu]L[NMeL][NMeF][Abu][NMeF][NPentylGly]T[Sar][NMeL]D-Piperidide; lactam N-11)	rule not met
CC(C)C[C@@H]1NC(=O)[C@H](Cc2ccccc2)N(C)C(=O)[C@H](CC(C)C)N(C)C(=O)[C@H](COCCC(C)(C)O)NC(=O)[C@H](C)N(C)C(=O)C[C@@H](C(=O)N2CCCCC2)NC(=O)[C@H](CC(C)C)N(C)C(=O)CN(C)C(=O)[C@H]([C@@H](C)O)NC(=O)[C@H](CC(C)C)N(C)C(=O)[C@H](CCc2ccccc2)N(C)C1=O [pd436] ([NMeA]S(Butyl(3-Me,3-OH))[NMeL][NMeF]L[NMehPhe][NMeL]T[Sar][NMeL]D-Piperidide; lactam N-11)	rule not met

State whether the measured Papp A→B at 180 min reaches 2 ×10⁻⁶ cm/s, counting equality as reaching it, for CCCCN1CC(=O)N(C)[C@@H](CC(C)C)C(=O)N[C@@H](COC(C)(C)C)C(=O)N(C)[C@@H](Cc2ccccc2)C(=O)N(C)[C@@H](C(C)C)C(=O)N[C@H](C(=O)N2CCCCC2)CC(=O)N[C@H](C)C(=O)N(C)[C@@H](Cc2ccccc2)C(=O)N[C@@H](CC(C)C)C(=O)N(C)[C@@H](CCN2CCCC(F)(F)C2)C(=O)N[C@@H]([C@@H](C)O)C1=O [pd386] ([dA][NMeF]L[NMeAbu(3,3-F2-piperidino)]T[NBuGly][NMeL]S(tBu)[NMeF][NMeV]D-Piperidide; lactam N-11) rule met
